Provenance of the data: patent US20140348836A1

Please provide measured fold improvement of affinity versus B44 for the entries that follow.
Molecular target: T1, CD40hfc (R&Dsystems, USA) (UniProt P25942 21-193)
T1 construct: Bought reagent; also called immobilized CD40 receptor; target; not shown: Fc part ('hfc') of the bought fusion
T1 sequence (P25942 21-193 limits assumed): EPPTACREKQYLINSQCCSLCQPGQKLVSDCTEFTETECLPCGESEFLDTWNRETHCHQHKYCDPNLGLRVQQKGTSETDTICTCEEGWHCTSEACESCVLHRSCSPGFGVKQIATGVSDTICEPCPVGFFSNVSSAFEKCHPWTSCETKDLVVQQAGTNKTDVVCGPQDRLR
Assay: SPR, physiological pH and 37 C
Description: The affinity measures of purified antibodies by surface plasmon resonance using the Biacore 3000 instrument was performed according to manufacturer's protocols. The CD40hfc (R&Dsystems, USA) was immobilized to the BIAcore sensorchip, CMS, using conventional amine coupling. The anti-CD40 antibodies of the invention, (serially diluted 1/3 from 1-0.012 nM) were analysed for binding in HBS-P (GE, BR-1003-68) at a flow rate of 30 μl/min at 37° C. and pH 7.3. […]

For Antibody clone H11 (antibody, human IgG1, lambda, V domains shown, also called H11 ANTI-CD40 ANTIBODY) VH: EVQLLESGGGLVQPGGSLRLSCAASGFTFSTYGMHWVRQAPGKGLEWLSYISGGSSYIFYADSVRGRFTISRDNSENALYLQMNSLRAEDTAVYYCARILRGGSGMDLWGQGTLVTVSS VL: QSVLTQPPSASGTPGQRVTISCTGSSSNIGAGYNVYWYQQLPGTAPKLLIYGNINRPSGVPDRFSGSKSGTSASLAISGLRSEDEADYYCAAWDGGLLGLVFGGGTKLTVLG , write its fold improvement of affinity versus B44.
~100 fold

Output fold improvement of affinity versus B44 of Antibody clone F9 (antibody, human IgG1, lambda, V domains shown) VH: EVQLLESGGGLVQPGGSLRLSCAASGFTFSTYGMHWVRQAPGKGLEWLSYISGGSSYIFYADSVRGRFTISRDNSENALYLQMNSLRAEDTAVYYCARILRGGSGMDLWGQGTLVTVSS VL: QSVLTQPPSASGTPGQRVTISCTGSSSNIGAGYGVYWYQQLPGTAPKLLIYGNINRPSGVPDRFSGSKSGTSASLAISGLRSEDEADYYCAAWDGTLTGLLFGGGTKLTVLG
~100 fold

Fill in reported fold improvement of affinity versus B44 for this entry: Antibody clone C4 (antibody, human IgG1, lambda, V domains shown, Same VL changes as A4; VH carries S63T; also called C4 ANTI-CD40 ANTIBODY) VH: EVQLLESGGGLVQPGGSLRLSCAASGFTFSTYGMHWVRQAPGKGLEWLSYISGGSSYIFYADTVRGRFTISRDNSENALYLQMNSLRAEDTAVYYCARILRGGSGMDLWGQGTLVTVSS VL: QSVLTQPPSASGTPGQRVTISCTGSTSNIGAGYKVYWYQQLPGTAPKLLIYGNINRPSGVPDRFSGSKSGTSASLAISGLRSEDEADYYCAAWDDSLSGLVFGGGTKLTVLG
~100 fold
